molecules and their reported Percent inhibition of specific ligand binding, [3H]AMPA
Test system: QUIS receptors (rat forebrain membranes)
EXPERIMENT NOTES: In vitro receptor binding: inhibition of specific [3H]AMPA binding
CONDITION CONTEXT: 50 μM compound; 4 nM ligand; pH 6.9, 100 mM KSCN; 60 min, 4° C.; mean ± S.E.M. of three determinations
State the value, then name its unit.

Need Percent inhibition of specific ligand binding, [3H]AMPA, item N[C@H](CCCP(=O)(O)O)C(=O)O [D(-)AP5, D(-)-2-amino-5-phosphonopentanoic acid] 3 ± 2%

Same read-out for NC(CC1CCCCC1CCP(=O)(O)O)C(=O)O (centres unmarked) [Example IV] ? 1 ± 1%

Similarly, Cc1onc(O)c1CC(N)C(=O)O (racemic) [AMPA] ? 100 ± 0%

For N[C@H](CCCCCP(=O)(O)O)C(=O)O [D(-)AP7, D(-)-2-amino-7-phosphonoheptanoic acid] then? 7 ± 5%

--- query ---
Give the measured Percent inhibition of specific ligand binding, [3H]AMPA of C=C(C)[C@H]1CN[C@H](C(=O)O)[C@H]1CC(=O)O [KA, kainic acid] . 56 ± 5%

----------
System: KA receptors (rat forebrain membranes)
EXPERIMENT NOTES: In vitro receptor binding: inhibition of specific [3H]KA binding
CONDITION CONTEXT: 50 μM compound; 2 nM ligand; pH 7.4; 90 min, 2° C.; mean ± S.E.M. of three determinations
Measured Percent inhibition of specific ligand binding, [3H]KA values are reported for all entries that follow.
Expressed in %, but write only the number.

// worked examples, Percent inhibition of specific ligand binding, [3H]KA included
Given the entry C=C(C)[C@H]1CN[C@H](C(=O)O)[C@H]1CC(=O)O [KA, kainic acid] , what Percent inhibition of specific ligand binding, [3H]KA was observed with KA receptors (rat forebrain membranes)? 100

Also, N[C@H](CCCCCP(=O)(O)O)C(=O)O [D(-)AP7, D(-)-2-amino-7-phosphonoheptanoic acid] please. 17

Now try NC(CC1CCCCC1CCP(=O)(O)O)C(=O)O (centres unmarked) [Example IV] . 9

Please give the result for N[C@H](CCCP(=O)(O)O)C(=O)O [D(-)AP5, D(-)-2-amino-5-phosphonopentanoic acid] too. 22

Switching to the query record.
Notebook entry, KA receptors (rat forebrain membranes) assay: Percent inhibition of specific ligand binding, [3H]KA of Cc1onc(O)c1CC(N)C(=O)O (racemic) [AMPA] = ? 64

----------
The compounds listed here are annotated with their Percent inhibition of specific ligand binding, [3H]CPP.
System: NMDA receptors (rat forebrain membranes)
EXPERIMENT NOTES: In vitro receptor binding: inhibition of specific [3H]CPP binding
CONDITION CONTEXT: 50 μM compound; 8 nM ligand; pH 7.4; 30 min, 23° C.; mean ± S.E.M. of three determinations
Experimental: The potency of the compound described in example IV to inhibit the specific binding of various EAA ligands to rat forebrain membranes was examined using standard in vitro binding techniques. Specifically, example IV was evaluated for potency to inhibit the specific binding of [^3 H]kainic acid ([^3 H]KA),[^3 H]RS-α-amino-3-hydroxy-5-methyl-4-isoxazole propionic acid([^3 H]AMPA) and [^3 H]3-(2-carboxypiperazin-4-yl) propyl-1-phosphonic acid([^3 H]CPP) to KA, QUIS and NMDA receptors, respectively. […]
Report the figure in % without appending any unit label.

Give its Percent inhibition of specific ligand binding, [3H]CPP value. Item: Cc1onc(O)c1CC(N)C(=O)O (racemic) 7

And for NC(CC1CCCCC1CCP(=O)(O)O)C(=O)O (centres unmarked) ? 33

Next:
Please report the recorded Percent inhibition of specific ligand binding, [3H]CPP for N[C@H](CCCCCP(=O)(O)O)C(=O)O [D(-)AP7, D(-)-2-amino-7-phosphonoheptanoic acid] . 100

What do you get for N[C@H](CCCP(=O)(O)O)C(=O)O [D(-)AP5, D(-)-2-amino-5-phosphonopentanoic acid] ? 95

Similarly, `C=C(C)[C@H]1CN[C@H](C(=O)O)[C@H]1CC(=O)O` ? 3
